Provide the reported IC50 of each item.
# TESTED_SYSTEM: Recombinant human cathepsin S (CatS) (Homo sapiens, UniProt P25774)
# Sequence (P25774 115-331): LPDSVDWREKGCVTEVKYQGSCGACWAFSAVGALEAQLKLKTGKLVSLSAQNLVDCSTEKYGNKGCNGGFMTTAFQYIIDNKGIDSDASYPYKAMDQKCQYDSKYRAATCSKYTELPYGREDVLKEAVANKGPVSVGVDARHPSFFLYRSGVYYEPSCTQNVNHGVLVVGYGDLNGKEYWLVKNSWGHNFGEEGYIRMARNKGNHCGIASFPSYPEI
# PROTOCOL_DESCRIPTION: Recombinant human cathepsin S (CatS) inhibition assay, fluorogenic substrate Z-Valine-Valine-Arginine-AMC
Answers are plain numbers, in nM.

| MOL | IC50, nM |
| --- | --- |
| CS(=O)(=O)N1CCc2c(c(-c3ccc(Cl)c(CCCO)c3)nn2CCCN2CCC(N3CCCC3=O)CC2)C1 | 1960 |
| CS(=O)(=O)N1CCc2c(c(-c3ccc(Cl)c(C#Cc4cccnc4)c3)nn2CCCN2CCOCC2)C1 | 1320 |
| CC(C)(C)OC(=O)N1CCC(C2CCN(C[C@H](O)Cn3nc(-c4ccc(Cl)c(C#Cc5ccc(Cl)cc5)c4)c4c3CCN(S(C)(=O)=O)C4)CC2)CC1 | 10 |

From here, focus on the item given below.
Qu. Consider the molecule shown here: CS(=O)(=O)N1CCc2c(c(-c3ccc(Cl)c(CCc4ccc(Cl)c(CNCc5ccccc5)c4)c3)nn2CCCN2CCOCC2)C1 What is its recorded IC50?
Ans. 120

###

# TESTED_SYSTEM: Recombinant human cathepsin S (CatS) (Homo sapiens, UniProt P25774)
# PROTOCOL_DESCRIPTION: Recombinant human cathepsin S (CatS) inhibition assay, fluorogenic substrate Z-Valine-Valine-Arginine-AMC
# APPLIED_CONDITIONS: CatS IC50
ATTRIBUTE_MEASURED: IC50 (nM)
One number for each entry, in nM.

| MOL | ENDPOINT_RESULT |
| --- | --- |
| CS(=O)(=O)N1CCc2c(c(-c3ccc(Cl)c(C#Cc4ccc(F)c(CNCc5ccccc5)c4)c3)nn2CCCN2CCOCC2)C1 | 210 |

For each of the molecules below, note its IC50.
1. CS(=O)(=O)N1CCc2c(c(-c3ccc(Cl)c(C#Cc4cccc(CNCCO)c4)c3)nn2CCCN2CCOCC2)C1
2. CS(=O)(=O)N1CCc2c(c(-c3ccc(Cl)c(C#Cc4ccccn4)c3)nn2C[C@@H](O)CN2CCC(C3CCNCC3)CC2)C1
3. C[C@@H]1COCCN1CCCn1nc(-c2ccc(Cl)c(C#Cc3ccc(Cl)c(CNCCCO)c3)c2)c2c1CCN(C(N)=O)C2
4. CS(=O)(=O)N1CCc2c(c(-c3ccc(Cl)c(C#Cc4ccc(Cl)c(Cl)c4)c3)nn2CCCN2CCOCC2)C1
5. NC(=O)N1CCc2c(c(-c3ccc(Cl)c(C#Cc4ccc(CNCc5ccccc5Cl)cc4)c3)nn2CCCN2CCSCC2)C1
6. CS(=O)(=O)N1CCc2c(c(-c3ccc(Cl)c(C#Cc4ccc5c(c4)CN[C@@H](C(N)=O)C5)c3)nn2CCCN2CCOCC2)C1

Ans.
1: 520; 2: 120; 3: 20; 4: 320; 5: 140; 6: 200

###

# TESTED_SYSTEM: Recombinant human cathepsin S (CatS) (Homo sapiens)
# PROTOCOL_DESCRIPTION: Recombinant human cathepsin S (CatS) inhibition assay, fluorogenic substrate Z-Valine-Valine-Arginine-AMC
# APPLIED_CONDITIONS: CatS IC50
Each record's IC50 is compared with Low = under 90 nM, Mid = from 90 nM up to 300 nM, High = 300 nM and over to give its class.

As a guide, the following entries are already answered.
| MOL | TESTED_SYSTEM | QUALITATIVE_LABEL |
| --- | --- | --- |
| CS(=O)(=O)N1CCc2c(c(-c3ccc(Cl)c(C#Cc4cccc(CNCc5ccc(Cl)cc5)c4)c3)nn2CCCN2CCN(c3ccccc3)CC2)C1 | Recombinant human cathepsin S (CatS) (Homo sapiens) | Low |
| CS(=O)(=O)N1CCc2c(c(-c3ccc(Cl)c(C#Cc4ccc(CNCc5cccnc5)cc4)c3)nn2CCCN2CCOCC2)C1 | Recombinant human cathepsin S (CatS) (Homo sapiens) | High |
| COc1ccc(CNCc2ccc(C#Cc3cc(-c4nn(CCCN5CCSCC5)c5c4CN(C(N)=O)CC5)ccc3Cl)cc2)cc1 | Recombinant human cathepsin S (CatS) (Homo sapiens) | Mid |
| NC(=O)N1CCc2c(c(-c3ccc(Cl)c(C#Cc4ccc(CNCc5ccc(Cl)cc5)cc4)c3)nn2CCCN2CCN(C3CCC3)CC2)C1 | Recombinant human cathepsin S (CatS) (Homo sapiens) | Mid |
| CN(Cc1ccc(Cl)cc1)Cc1ccc(C#Cc2cc(-c3nn(CCCN4CCN(c5ccccn5)CC4)c4c3CN(S(C)(=O)=O)CC4)ccc2Cl)cc1 | Recombinant human cathepsin S (CatS) (Homo sapiens) | Mid |

Qu. Field: class (IC50) — entry: CNCCCNC(=O)c1cc(C#Cc2cc(-c3nn(CCCN4CCSCC4)c4c3CN(C(=O)C(N)=O)CC4)ccc2Cl)ccc1Cl
Ans. Low

Qu. Field: class (IC50) — entry: NC(=O)N1CCc2c(c(-c3ccc(Cl)c(C#Cc4ccc(CNCc5cccc(Cl)c5)cc4)c3)nn2CCCN2CCSCC2)C1
Ans. Low

Qu. Field: class (IC50) — entry: NC(=O)N1CCc2c(c(-c3ccc(Cl)c(C#Cc4ccc(CNCc5ccc(Cl)cc5)cc4)c3)nn2CCCN2C[C@H]3COC[C@H]3C2)C1
Ans. Low

Qu. Field: class (IC50) — entry: CS(=O)(=O)N1CCc2c(c(-c3ccc(Cl)c(C#Cc4ccc(CNCc5ccc(Cl)cc5)cc4)c3)nn2CCCN2CCNCC2)C1
Ans. High

Qu. Field: class (IC50) — entry: CS(=O)(=O)N1CCc2c(c(-c3ccc(Cl)c(C#Cc4ccc(CNCc5ccc(Cl)cc5)cc4)c3)nn2CCCN2CCCOCC2)C1
Ans. Mid

Qu. Field: class (IC50) — entry: CS(=O)(=O)N1CCc2c(c(-c3ccc(Cl)c(C#Cc4ccc(CNCC5CC5)cc4)c3)nn2CCCN2CCOCC2)C1
Ans. High

###

# TESTED_SYSTEM: Recombinant human cathepsin S (CatS) (Homo sapiens)
# PROTOCOL_DESCRIPTION: Recombinant human cathepsin S (CatS) inhibition assay, fluorogenic substrate Z-Valine-Valine-Arginine-AMC
# APPLIED_CONDITIONS: CatS IC50, Table 2; average of results obtained
ATTRIBUTE_MEASURED: IC50 (nM)
Numbers only, in nM.

// below: answered compounds
| COMPOUND | ENDPOINT_RESULT |
| --- | --- |
| CS(=O)(=O)N1CCc2c(c(-c3ccc(Cl)c(C#Cc4ccsc4)c3)nn2CCCN2CCOCC2)C1 [Example 23] | 1440 |
| Cc1ccccc1C#Cc1cc(-c2nn(CCCN3CCOCC3)c3c2CN(S(C)(=O)=O)CC3)ccc1Cl [Example 35] | 1050 |

For each of the compounds below, note its IC50.
1. CS(=O)(=O)N1CCc2c(c(-c3ccc(Cl)c(C#Cc4ccccc4)c3)nn2CCCN2CCOCC2)C1 [Example 39]
2. CCCCC#Cc1cc(-c2nn(CCCN3CCOCC3)c3c2CN(S(C)(=O)=O)CC3)ccc1Cl [Example 47]
3. CS(=O)(=O)N1CCc2c(c(-c3ccc(Cl)c(C#Cc4cccc(C(F)(F)F)c4)c3)nn2CCCN2CCOCC2)C1 [Example 36]
4. CS(=O)(=O)N1CCc2c(c(-c3ccc(Cl)c(C#Cc4ccc(C(=O)O)cc4)c3)nn2CCCN2CCOCC2)C1 [Example 19]
5. CS(=O)(=O)N1CCc2c(c(-c3ccc(Cl)c(C#Cc4ccc(N)cc4)c3)nn2CCCN2CCOCC2)C1 [Example 38]
6. CS(=O)(=O)N1CCc2c(c(-c3ccc(Cl)c(C#CCCO)c3)nn2CCCN2CCOCC2)C1 [Example 45]

Ans.
1: 610; 2: 10600; 3: 1450; 4: 420; 5: 330; 6: 920

###

# TESTED_SYSTEM: Recombinant human cathepsin S (CatS) (Homo sapiens, UniProt P25774)
# PROTOCOL_DESCRIPTION: Recombinant human cathepsin S (CatS) inhibition assay, fluorogenic substrate Z-Valine-Valine-Arginine-AMC;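 note: Baculovirus-expressed CatS in pH 5.0 sodium acetate buffer with DTT and NaCl, fluorescence read each minute over 20 min, inhibition derived from rate slope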
# APPLIED_CONDITIONS: CatS IC50, Table 2; average of results obtained
Provide the reported pIC50 of each item.
Numbers only, as −log10 of the molar value.

For each of the compounds below, note its pIC50.
1. CS(=O)(=O)N1CCc2c(c(-c3ccc(Cl)c(C#Cc4ccc(F)cc4)c3)nn2CCCN2CCOCC2)C1 [Example 31]
2. O=C(c1ccco1)N1CCc2c(c(-c3ccc(Cl)c(C#Cc4ccc(Cl)cc4)c3)nn2CCCN2CCOCC2)C1 [Example 138]
3. O=C(N1CCc2c(c(-c3ccc(Cl)c(C#Cc4ccc(Cl)cc4)c3)nn2CCCN2CCOCC2)C1)C(F)(F)F [Example 139]

Ans.
[6.36, 6.46, 6.64]

For each of the compounds below, note its pIC50.
1. CS(=O)(=O)N1CCc2c(c(-c3ccc(Cl)c(C#Cc4ccc(C=O)cc4)c3)nn2CCCN2CCOCC2)C1 [Example 37]
2. CS(=O)(=O)N1CCc2c(c(-c3ccc(Cl)c(C#Cc4ccncc4)c3)nn2CCCN2CCOCC2)C1 [Example 20]
3. CS(=O)(=O)N1CCc2c(c(-c3ccc(Cl)c(C#Cc4ccccc4C(F)(F)F)c3)nn2CCCN2CCOCC2)C1 [Example 34]
4. O=C(CF)N1CCc2c(c(-c3ccc(Cl)c(C#Cc4ccc(Cl)cc4)c3)nn2CCCN2CCOCC2)C1 [Example 140]

Ans.
[6.92, 6.27, 6.06, 6.60]
